Where a name gives a salt, the structure may show the parent alone.
The molecules listed here are annotated with their melting point.
measurement-kind: melting point

molecule=CC(C)Oc1ccccc1C1=CCN(CCCCn2ccn(C34CC5CC(CC(C5)C3)C4)c2=O)CC1.O=C(O)C(=O)O obs_value="104 to 109 °C"
molecule="O=C1N(CCCCN2CCN(c3ccccc3OS(=O)(=O)C(F)(F)F)CC2)CCN1C1CCCCC1 (as salt: hydrochloride)" obs_value="153 to 154 °C"
molecule=CC(C)Oc1ccccc1C1CCN(CCCCN2CCN(C3CCCCC3)C2=O)CC1.O=C(O)C(=O)O obs_value="138 to 141 °C"
molecule=Cl.Cl.O=C1N(CCCCN2CCN(c3ccccc3OC3CCCC3)CC2)CCN1C1CCCCC1 obs_value="182 to 193 °C"
molecule=CC(C)Oc1ccccc1C1CCN(CCCCN2CCN(C(C)C)C2=O)CC1.O=C(O)C(=O)O obs_value="82 to 84 °C"
molecule=CC(C)Oc1ccccc1C1CCN(CCCCn2ccn(C34CC5CC(CC(C5)C3)C4)c2=O)CC1.O=C(O)C(=O)O obs_value="116 to 122 °C"
molecule=O=C1N(CCCCN2CCN(c3ccccc3OC3CCCC3)CC2)CCN1c1ccc(F)cc1 obs_value="111 to 116 °C"
molecule=O=C(O)C(=O)O.O=C1N(CCCCN2CCC(c3ccccc3OCC3CC3)CC2)CCN1C1CCCCC1 obs_value="186 to 193 °C"
molecule=CC(C)Oc1ccccc1C1CCN(CCCCCCN2CCN(C3CCCCC3)C2=O)CC1.O=C(O)C(=O)O obs_value="77 to 79 °C"
molecule=CC(C)Oc1ccccc1N1CCN(CCCN2CCN(c3ccccc3)C2=O)CC1 obs_value="167 to 168 °C"
molecule=CC(C)Oc1ccccc1C1CCN(CCCN2CCN(C3CCCCC3)C2=O)CC1.O=C(O)C(=O)O obs_value="136 to 139 °C"
molecule=O=C1N(CCCCN2CCN(c3ccccc3OS(=O)(=O)C(F)(F)F)CC2)CCN1c1ccc(F)cc1 obs_value="68 to 70 °C"
molecule=CC(C)Oc1ccccc1N1CCN(CCCCN2CCN(c3ccc(F)cc3)C2=O)CC1 obs_value="135 to 137 °C"
molecule=CC(C)Oc1ccccc1C1=CCN(CCCCN2CCN(c3ccc(F)cc3)C2=O)CC1.O=C(O)C(=O)O obs_value="150 to 152 °C"
molecule=CC(C)Oc1ccccc1C1CCN(CCCCn2ccn(C3CCCCC3)c2=O)CC1.O=C(O)C(=O)O obs_value="68 to 71 °C"
molecule=CC(C)(C)COc1ccccc1C1CCN(CCCCN2CCN(C3CCCCC3)C2=O)CC1.O=C(O)C(=O)O obs_value="162 to 168 °C"

----------
Examples of compounds with documented ED50 follow.
Test: Cataleptogenic effect
Set-up: species or system rats
Details: rat, in vivo; 1-6 h, sc; read-out: Catalepsy ED50
Text: Evaluation of cataleptogenic effects of the compounds of the invention was made according to the method of Sanchez, C. et al.; Drug Dev. Res. 1991, 22, 239-250.
Where a name gives a salt, the structure may show the parent alone.
measurement-kind: ED50

compound="CC(C)Oc1ccccc1C1=CCN(CCCCN2CCN(c3ccc(F)cc3)C2=O)CC1.O=C(O)C(=O)O [Compound 9b]" measurement_kind=ED50 obs_value="> 37 µmol/kg"
compound="O=C1N(CCCCN2CCN(c3ccccc3OS(=O)(=O)C(F)(F)F)CC2)CCN1C1CCCCC1 [Compound 7b, hydrochloride]" measurement_kind=ED50 obs_value="> 35 µmol/kg"
compound="CC(C)Oc1ccccc1C1=CCN(CCCCN2CCN(C3CCCCC3)C2=O)CC1.O=C(O)C(=O)O [Compound 9a]" measurement_kind=ED50 obs_value="> 38 µmol/kg"
compound="CC(C)Oc1ccccc1C1CCN(CCCCCCN2CCN(C3CCCCC3)C2=O)CC1.O=C(O)C(=O)O [Compound 6e]" measurement_kind=ED50 obs_value="> 33 µmol/kg"
compound="O=C1N(CCCCN2CCN(c3ccccc3OC3CCCC3)CC2)CCN1c1ccc(F)cc1 [Compound 4d]" measurement_kind=ED50 obs_value="> 42 µmol/kg"
compound="O=C1N(CCCCN2CCN(c3ccccc3OS(=O)(=O)C(F)(F)F)CC2)CCN1c1ccc(F)cc1 [Compound 7c]" measurement_kind=ED50 obs_value="> 37 µmol/kg"
compound="CC(C)Oc1ccccc1C1CCN(CCCCN2CCN(C(C)C)C2=O)CC1.O=C(O)C(=O)O [Compound 6d]" measurement_kind=ED50 obs_value="> 41 µmol/kg"
compound="CC(C)Oc1ccccc1C1CCN(CCCCN2CCN(c3ccc(F)cc3)C2=O)CC1.O=C(O)C(=O)O [Compound 6a]" measurement_kind=ED50 obs_value="> 44 µmol/kg"
compound="Cl.Cl.O=C1N(CCCCN2CCN(c3ccccc3OC3CCCC3)CC2)CCN1C1CCCCC1 [Compound 4c]" measurement_kind=ED50 obs_value="> 37 µmol/kg"
compound="O=C(CCCN1CCC(O)(c2ccc(Cl)cc2)CC1)c1ccc(F)cc1 [haloperidol, reference compound]" measurement_kind=ED50 obs_value="0.36 µmol/kg"
compound="CC(C)Oc1ccccc1N1CCN(CCCN2CCN(c3ccccc3)C2=O)CC1 [Compound 4e]" measurement_kind=ED50 obs_value="> 34 µmol/kg"
compound="CC(C)Oc1ccccc1N1CCN(CCCCN2CCN(C3CCCCC3)C2=O)CC1.O=C(O)C(=O)O [Compound 4a]" measurement_kind=ED50 obs_value="> 38 µmol/kg"
compound="CC(C)Oc1ccccc1C1CCN(CCCCn2ccn(C3CCCCC3)c2=O)CC1.O=C(O)C(=O)O [Compound 6h]" measurement_kind=ED50 obs_value="> 38 µmol/kg"
compound="CC(C)Oc1ccccc1C1CCN(CCCCN2CCN(C3CCCCC3)C2=O)CC1.O=C(O)C(=O)O [Compound 6b]" measurement_kind=ED50 obs_value="> 38 µmol/kg"
compound="CC(C)Oc1ccccc1N1CCN(CCCCN2CCN(c3ccc(F)cc3)C2=O)CC1 [Compound 4b]" measurement_kind=ED50 obs_value="> 44 µmol/kg"

----------
Molecular target: 5-HT1A receptors (Rattus norvegicus, UniProt P19327)
Sequence (P19327 whole entry): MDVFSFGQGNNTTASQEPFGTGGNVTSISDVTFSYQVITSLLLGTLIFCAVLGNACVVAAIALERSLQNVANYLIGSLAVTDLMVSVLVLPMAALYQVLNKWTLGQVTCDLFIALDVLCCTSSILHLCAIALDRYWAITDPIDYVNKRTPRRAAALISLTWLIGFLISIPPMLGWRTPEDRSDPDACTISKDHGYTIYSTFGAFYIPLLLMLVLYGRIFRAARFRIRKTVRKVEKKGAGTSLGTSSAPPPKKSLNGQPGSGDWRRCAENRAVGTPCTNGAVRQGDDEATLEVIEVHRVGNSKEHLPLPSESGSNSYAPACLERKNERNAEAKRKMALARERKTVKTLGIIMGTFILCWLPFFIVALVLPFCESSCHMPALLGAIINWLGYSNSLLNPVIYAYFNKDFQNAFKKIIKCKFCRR
pIC50: −log10 of the molar value.
measurement-kind: pIC50

compound="CC(C)Oc1ccccc1C1CCN(CCCCn2ccn(C3CCCCC3)c2=O)CC1.O=C(O)C(=O)O [Compound 6h, oxalate]" measurement_kind=pIC50 obs_value=8.39
compound="CC(C)Oc1ccccc1N1CCN(CCCCN2CCN(C3CCCCC3)C2=O)CC1.O=C(O)C(=O)O [Compound 4a, Oxalate]" measurement_kind=pIC50 obs_value=8.74
compound="CC(C)Oc1ccccc1C1=CCN(CCCCN2CCN(C3CCCCC3)C2=O)CC1.O=C(O)C(=O)O [Compound 9a, Oxalate]" measurement_kind=pIC50 obs_value=8.05
compound="Cl.Cl.O=C1N(CCCCN2CCN(c3ccccc3OC3CCCC3)CC2)CCN1C1CCCCC1 [Compound 4c, dihydrochloride]" measurement_kind=pIC50 obs_value=8.27
compound="CC(C)Oc1ccccc1C1=CCN(CCCCN2CCN(c3ccc(F)cc3)C2=O)CC1.O=C(O)C(=O)O [Compound 9b, oxalate]" measurement_kind=pIC50 obs_value=8.55
compound="CC(C)Oc1ccccc1N1CCN(CCCN2CCN(c3ccccc3)C2=O)CC1 [Compound 4e]" measurement_kind=pIC50 obs_value=7.40
compound="CC(C)Oc1ccccc1C1CCN(CCCCN2CCN(c3ccc(F)cc3)C2=O)CC1.O=C(O)C(=O)O [Compound 6a, Oxalate]" measurement_kind=pIC50 obs_value=8.32

Attribution: patent US6514993B1
